Form field: IC50 (one value per entry).
- System: Ferriprotoporphyrin IX
- Experiment notes: Binding affinity to haematin assessed as inhibition of NP40-mediated beta-haematin formation after 4 hrs by pyridine-ferrochrome method
Write down the numeric answer in µM and omit the unit.

Observe how each entry below is paired with its result.
Clc1ccc2c(Nc3ccc(Nc4nc(Cl)nc(N(c5ccccc5)c5ccccc5)n4)cc3)ccnc2c1	24.9
Nc1ccc(Nc2ccnc3cc(Cl)ccc23)cc1	32.5
COc1ccccc1Nc1nc(Cl)nc(Nc2ccc(Nc3ccnc4cc(Cl)ccc34)cc2)n1	21
Clc1ccc2c(Nc3ccc(Nc4nc(Cl)nc(N5CCOCC5)n4)cc3)ccnc2c1	21.1

Case O=[N+]([O-])c1ccc(Nc2nc(Cl)nc(Nc3ccc(Nc4ccnc5cc(Cl)ccc45)cc3)n2)cc1 , Ferriprotoporphyrin IX, IC50 recorded as 23

====

- Tested on: Plasmodium falciparum
- Experiment notes: Antimalarial activity against chloroquine-resistant Plasmodium falciparum W2 infected in human erythrocytes assessed as parasite growth inhibition after 48 hrs by YOYO1 probe-based flow cytometric method
- Assay type: functional, cell-based
- Run conditions: W2, 48 h
Readout kind: IC50 (µM)
Just the number please, in µM, no unit attached.

Use the examples below as a reference point.
CN(c1ccccc1)c1nc(Cl)nc(Nc2ccc(Nc3ccnc4cc(Cl)ccc34)cc2)n1	0.269
Clc1ccc2c(Nc3ccc(Nc4nc(Cl)nc(NCc5ccccc5)n4)cc3)ccnc2c1	0.123
CCN(c1ccccc1)c1nc(Cl)nc(Nc2ccc(Nc3ccnc4cc(Cl)ccc34)cc2)n1	0.22
Clc1ccc2c(Nc3ccc(Nc4nc(Cl)nc(N(c5ccccc5)c5ccccc5)n4)cc3)ccnc2c1	0.255
O=[N+]([O-])c1ccc(Nc2nc(Cl)nc(Nc3ccc(Nc4ccnc5cc(Cl)ccc45)cc3)n2)cc1	0.145
Clc1ccc2c(Nc3ccc(Nc4nc(Cl)nc(N5CCOCC5)n4)cc3)ccnc2c1	0.138

The recorded IC50 for CCCN(CCC)c1nc(Cl)nc(Nc2ccc(Nc3ccnc4cc(Cl)ccc34)cc2)n1 is 0.008

====

- System: Ferriprotoporphyrin IX
- Experiment notes: Binding affinity to haematin assessed as inhibition of NP40-mediated beta-haematin formation after 4 hrs by pyridine-ferrochrome method
Readout kind: pIC50
Notebook: values listed as pIC50 are -log10 of the concentration (mol/L).

Clc1ccc2c(Nc3ccc(Nc4nc(Cl)nc(N5CCCC5)n4)cc3)ccnc2c1	4.55
CCN(CC)c1nc(Cl)nc(Nc2ccc(Nc3ccnc4cc(Cl)ccc34)cc2)n1	4.67
Clc1ccc2c(Nc3ccc(Nc4nc(Cl)nc(N5CCCCC5)n4)cc3)ccnc2c1	4.69

We now examine a further molecule.
// returns pIC50 for CCCN(CCC)c1nc(Cl)nc(Nc2ccc(Nc3ccnc4cc(Cl)ccc34)cc2)n1 with Ferriprotoporphyrin IX; value = 4.73

====

- System: Plasmodium falciparum
- Experiment notes: Antimalarial activity against chloroquine-resistant Plasmodium falciparum W2 infected in human erythrocytes assessed as parasite growth inhibition after 48 hrs by YOYO1 probe-based flow cytometric method
- Assay type: functional, cell-based
- Run conditions: W2, 48 h
Readout kind: log10 of IC50 (log10 of the value in nM)
All values: log10 IC50 [nM].

Worked examples, 4 compounds total:
Clc1ccc2c(Nc3ccc(Nc4nc(Cl)nc(N5CCNCC5)n4)cc3)ccnc2c1	2.22
CC(C)N(c1nc(Cl)nc(Nc2ccc(Nc3ccnc4cc(Cl)ccc34)cc2)n1)C(C)C	2.96
Clc1ccc2c(Nc3ccc(Nc4nc(Cl)nc(N5CCCC5)n4)cc3)ccnc2c1	2.08
Nc1ccc(Nc2ccnc3cc(Cl)ccc23)cc1	2.91

Entry C[C@@H]1CC[C@H]2[C@@H](C)C(=O)O[C@@H]3O[C@@]4(C)CC[C@@H]1[C@]32OO4 : log10 of IC50 on Plasmodium falciparum = 1.18

# log10 of IC50 measured on Plasmodium falciparum for item COc1ccccc1Nc1nc(Cl)nc(Nc2ccc(Nc3ccnc4cc(Cl)ccc34)cc2)n1 = 2.16

Given the compound CN(C)c1nc(Cl)nc(Nc2ccc(Nc3ccnc4cc(Cl)ccc34)cc2)n1 and test system Plasmodium falciparum, the measured log10 of IC50 is 2.58

# value of log10 of IC50, Plasmodium falciparum, item CCN(CC)c1nc(Cl)nc(Nc2ccc(Nc3ccnc4cc(Cl)ccc34)cc2)n1 = 2.43

Entry Clc1ccc2c(Nc3ccc(Nc4nc(Cl)nc(N5CCCCC5)n4)cc3)ccnc2c1 , tested on Plasmodium falciparum, has a reported log10 of IC50 of 2.07
